Molecular target: trypsin (derived from bovine pancreas) (Bos taurus, UniProt P00760)
Construct: a solution of 80 mU/ml trypsin (derived from bovine pancreas) (50 μl); from tissue; host or cells: bovine pancreas
Sequence (P00760 24-246): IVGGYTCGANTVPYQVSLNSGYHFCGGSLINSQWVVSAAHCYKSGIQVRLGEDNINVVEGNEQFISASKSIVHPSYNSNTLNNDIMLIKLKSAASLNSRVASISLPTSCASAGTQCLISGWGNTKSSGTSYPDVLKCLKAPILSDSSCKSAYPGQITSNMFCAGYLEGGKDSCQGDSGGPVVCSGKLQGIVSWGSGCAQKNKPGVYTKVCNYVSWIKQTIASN
Assay: Inhibitory activity on trypsin
Type: biochemical
Conditions: bovine pancreas trypsin, BAPNA substrate, 30° C., pH 8.0; read-out: inhibitory activity on trypsin IC50
endpoint: IC50 (nM)

Answered cases to consult:
[
  {
    "compound": "N=C(N)C1=Cc2ccc(OC(=O)c3ccc(C(=O)N(CC(=O)OCc4ccccc4)c4ccccc4)cc3)cc2CC1",
    "target system": "trypsin (derived from bovine pancreas) (Bos taurus, UniProt P00760)",
    "test result": 560
  },
  {
    "compound": "C=CCN(CC(=O)OCC)C(=O)COc1ccc(C(=O)Oc2ccc(C(=N)N)cc2)cc1",
    "target system": "trypsin (derived from bovine pancreas) (Bos taurus, UniProt P00760)",
    "test result": 190
  },
  {
    "compound": "C=CCN(CC(=O)OCC)C(=O)C(=Cc1ccc(C(=O)Oc2ccc(C(=N)N)cc2)cc1)C(=O)OCC [Example 2(s)]",
    "target system": "trypsin (derived from bovine pancreas) (Bos taurus, UniProt P00760)",
    "test result": 160
  },
  {
    "compound": "CCOC(=O)CC[C@H](NC(=O)c1ccc(/C=C/C(=O)Oc2ccc(C(=N)N)cc2)cc1)C(=O)OCC",
    "target system": "trypsin (derived from bovine pancreas) (Bos taurus, UniProt P00760)",
    "test result": 100
  },
  {
    "compound": "C=CCN(CC(=O)OCC)C(=O)/C=C/C=C/c1ccc(C(=O)Oc2ccc(C(=N)N)cc2)cc1",
    "target system": "trypsin (derived from bovine pancreas) (Bos taurus, UniProt P00760)",
    "test result": 160
  }
]

[A] CCOC(=O)CN(C(=O)c1ccc(C(=O)Oc2ccc(/C=C/C(=N)N)cc2)cc1)c1ccccc1
[B] N=C(N)C1=Cc2ccc(OC(=O)c3ccc(C(=O)N(Cc4ccccc4)c4ccccc4)cc3)cc2CC1
## Task # argmax over IC50 for candidates A and B API: response body contains the label of the selected item.
## Result B
(B: 400 nM, A: 140 nM)
